Reported FDI values for the following molecules.
Test system: Sitophilus granarius
TEST DESCRIPTION: Antifeeding activity against Sitophilus granarius (granary weevil) adults in compound treated wheat wafer disk assessed as absolute coefficient of deterrence by feeding deterrent activity test
Assay type: functional
// return a plain number; no unit text

[
  {
    "MOLECULE": "COc1ccc2c(c1)OC(C)(C)C(CC(=O)O)=C2",
    "READOUT VALUE": 1.8
  }
]

Case COc1cc2c(cc1OC)C1=C(CC(=O)O1)C(C)(C)O2 , Sitophilus granarius, FDI recorded as 14.2

Case COc1cc2c(cc1OC)OC(C)(C)C(CC(=O)O)=C2 , Sitophilus granarius, FDI recorded as 15

Case COc1cc2c(cc1OC)OC(C)(C)C=C2 [PROCOCENE II] , Sitophilus granarius, FDI recorded as 100

Case COc1ccc2c(c1)OC(C)(C)[C@@]1(I)CC(=O)O[C@@H]21 (racemic) , Sitophilus granarius, FDI recorded as 21.1

Case COc1ccc2c(c1)OC(C)(C)C1=C2OC(=O)C1 , Sitophilus granarius, FDI recorded as 19.7

Case COc1cc2c(cc1OC)[C@@H]1OC(=O)C[C@]1(I)C(C)(C)O2 (racemic) , Sitophilus granarius, FDI recorded as 3.9

Case COc1ccc2c(c1)OC(C)(C)C=C2 [PROCOCENE I] , Sitophilus granarius, FDI recorded as 55.2
